Reference source for all entries: PubChem BioAssay

tested on: XIP peptide (Xip251-270) binding; assay: small-molecule binders of XIP peptide, primary screen, biochemical, small-molecule microarray, fluorescence 635/667 nm, 0.1 µg/mL protein (AID 1182); conditions: fluorescent protein binding, 635 nm, higher = more signal, called active from +8 up or from −8 down
READOUT_NAME: composite z-score
The reply should be a number, written without any unit.

Worked set:
MOLECULE: CC[C@H](C)C(=O)O[C@H]1CC[C@]2(C)C3=C(CCC2C1(C)C)[C@]1(C)CC[C@H]([C@H](C)CCCC(C)C)[C@@]1(C)CC3 (stereo partly drawn)
composite z-score: 0.146
--
MOLECULE: COCC(=C=CC[C@@H](O)c1cccc(OCCO)c1)C[C@@H](O)COCc1ccccc1
composite z-score: 0.0062
--
MOLECULE: CCCC=C(CCC)[C@@H](NC(=O)c1ccco1)c1ccc(C(=O)OC)cc1
composite z-score: 0.192
--
MOLECULE: N[C@@H](Cc1ccccc1)Cn1cc(C2(O)CCCCC2)nn1
composite z-score: -0.0563
--
MOLECULE: CN(C)CCCNC(=O)[C@@H]1c2ccccc2C(=O)N(C2Cc3ccccc3C2)[C@H]1c1ccc(CO)cc1
composite z-score: -0.233

Task: Using known records, supply composite z-score for "NC(=O)[C@@]1(CCS(=O)(=O)c2ccccc2)COC(c2ccc(OCCCO)cc2)=N1"
Output: -0.377

Task: Using known records, supply composite z-score for "CCCC=C(CCC)[C@@H](NC(=O)c1ccccc1)c1ccc(C(=O)OC)cc1"
Output: -0.0026

Task: Using known records, supply composite z-score for "C=CCN1C(=O)[C@]2(O[C@H](CCn3cc([C@H](O)c4ccccc4)nn3)[C@@H]([Si](C)(C)c3ccc(OC)cc3)[C@@H]2C)c2cc(N3C(=O)c4cccc5cccc3c45)ccc21"
Output: 0.767

----------
test: Plasmodium falciparum growth inhibition, primary screen, strain 3D7, DAPI fluorescence, 100 nL (AID 1184);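 also: parasites grown inside human red blood cells in medium with human serum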; details: P. falciparum 3D7 growth, 3 d, higher = more signal
READOUT_NAME: z-score

Task: Using known records, supply z-score for "CCCC[C@@H]1C[C@H]1[C@@H](NC(=O)Cc1ccccc1)c1ccc(Cl)cc1"
Output: -0.0042

Task: Using known records, supply z-score for "C=CCN1C(=O)[C@]2(O[C@H](CCn3cc([C@H](O)c4ccccc4)nn3)[C@@H]([Si](C)(C)c3ccc(OC)cc3)[C@@H]2C)c2cc(N3C(=O)c4cccc5cccc3c45)ccc21"
Output: -2.75

Task: Using known records, supply z-score for "CN(C)CCCCNC(=O)[C@H]1C[C@H]2C(=O)N[C@@H](Cc3ccccc3)C(=O)N2[C@H]1c1cccc(OCCO)c1"
Output: -0.0613

Task: Using known records, supply z-score for "CCCC=C(CCC)[C@@H](NS(=O)(=O)c1ccc(Cl)cc1)c1ccccc1"
Output: -1.11

Task: Using known records, supply z-score for "COCCOC(=O)N1C(=O)[C@@]2(c3cc(C#CCC(C(=O)OC)C(=O)OC)ccc31)[C@H](C(=O)N1CCCCCCC1)[C@H]1C(=O)O[C@H](c3ccccc3)[C@H](c3ccccc3)N1[C@@H]2c1ccccc1OCCO"
Output: -2.4

Task: Using known records, supply z-score for O=C1C2C=CC(C(O)c3cccs3)N(Nc3ccccc3)C2C(=O)N1c1ccccc1 (stereo unspecified)
Output: -0.459

Task: Using known records, supply z-score for CCCCN1CC=CC23O[C@@H]4/C=C\CCC(C)OC(=O)C4[C@H]2C(=O)N(C(C)CO)[C@@H]3C1=O (stereo partly specified)
Output: 0.105

Task: Using known records, supply z-score for "COCCOC(=O)N1C(=O)[C@@]2(c3ccccc31)[C@H](C(=O)N1CCCCCCC1)[C@H]1C(=O)O[C@H](c3ccccc3)[C@H](c3ccccc3)N1[C@@H]2c1ccc(O)cc1"
Output: -0.621

Task: Using known records, supply z-score for "COCCOC(=O)N1C(=O)[C@@]2(c3cc(C#CC4=CCCCC4)ccc31)[C@H](C(=O)N1CCc3cc(OC)c(OC)cc3C1)[C@H]1C(=O)O[C@H](c3ccccc3)[C@H](c3ccccc3)N1[C@@H]2c1ccc(O)cc1"
Output: -1.8

Task: Using known records, supply z-score for "COc1ccc(CCNC(=O)[C@@]2(Sc3ccc(C)cc3)CC(=O)N(C(C)C)[C@@H]2c2ccc(CO)cc2)cc1"
Output: -0.302

Task: Using known records, supply z-score for "CN1C(=O)[C@]2(CCC(=O)OC(C)(C)C)N=C(c3ccc(OCCCO)cc3)O[C@@H]2c2ccccc21"
Output: -1.56

Task: Using known records, supply z-score for NC(=O)N1C(=O)C2C(C1=O)C1C=C(CCCO)C2C(c2ccc(CN3CCCC3)cc2)N1Cc1cccc(OC(F)(F)F)c1 (stereo unspecified)
Output: -2.28

Task: Using known records, supply z-score for CC(C)C[C@@H]1NC(=O)[C@@]23C(=O)N[C@@H](Cc4ccccc4)C2[C@H](C)[C@@]2(C)O[C@H]2C3/C=C/C/C=C\CNC(=O)[C@@H](CC(C)C)NC1=O (stereo partly specified)
Output: -0.0432

Task: Using known records, supply z-score for "COCCOC(=O)N1C(=O)[C@@]2(c3cc(C#CCCO)ccc31)[C@H](C(=O)N1CCN(c3ncccn3)CC1)[C@H]1C(=O)O[C@H](c3ccccc3)[C@H](c3ccccc3)N1[C@@H]2c1ccc(O)cc1"
Output: -0.278

Task: Using known records, supply z-score for "CN(C)CCCC[C@@H]1NC(=O)[C@@H]2C[C@H](C(=O)NCCCCCCNC(=O)CS)[C@H](c3cccc(OCCO)c3)N2C1=O"
Output: -0.391

Task: Using known records, supply z-score for "COC(=O)[C@@]1(Cc2ccc(F)cc2)[C@H]2c3cc(C(=O)N(C)C)n(CCn4cc([N+](=O)[O-])nc4C)c3C[C@H]2CN1C(=O)c1ccccc1"
Output: 0.653

----------
test system: Noggin (protein binding on small-molecule microarray); test: Noggin binders on small-molecule microarray, primary screen, biochemical, 635/667 nm fluorescence (AID 1095); conditions: 635 nm fluorescence, higher = more signal;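 also: score merges 667 nm feature fluorescence with signal to noise over triplicate slides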
READOUT_NAME: composite z-score
The reply should be a number, written without any unit.

Worked set:
COMPOUND_STRUCTURE_STRING: COC(=O)[C@]1(CO)N=C(c2ccc(OCCCO)cc2)O[C@@H]1c1ccccc1CN=[N+]=[N-]
TEST_TARGET: Noggin (protein binding on small-molecule microarray)
NUMERIC_RESULT: 0.227

COMPOUND_STRUCTURE_STRING: COCCOC(=O)N1C(=O)[C@@]2(c3ccccc31)[C@H](C(=O)N1CCCCCCC1)[C@H]1C(=O)O[C@H](c3ccccc3)[C@H](c3ccccc3)N1[C@@H]2c1ccc(O)cc1
TEST_TARGET: Noggin (protein binding on small-molecule microarray)
NUMERIC_RESULT: 1.11

COMPOUND_STRUCTURE_STRING: NCCCC[C@@H]1NC(=O)[C@H]2C[C@@H](C(=O)O)[C@@H](c3cccc(OCCO)c3)N2C1=O
TEST_TARGET: Noggin (protein binding on small-molecule microarray)
NUMERIC_RESULT: 1.85

COMPOUND_STRUCTURE_STRING: O=C1c2ccccc2[C@@]2(Cc3ccccc3N(Cc3ccccc3)C2=O)[C@H](c2ccc(CO)cc2)N1Cc1ccccc1
TEST_TARGET: Noggin (protein binding on small-molecule microarray)
NUMERIC_RESULT: -0.945

Next, consider the following compound.
Task: Using known records, supply composite z-score for "CCCCNC(=O)c1ccc(C#C[Si](C)(C)C)c(OC(C)=O)c1"
Output: 0.309

----------
// composite z-score lookup, one value per entry
tested on: Noggin (protein binding on small-molecule microarray); test: Noggin binders on small-molecule microarray, primary screen, biochemical, 635/667 nm fluorescence (AID 1095); conditions: 635 nm fluorescence, higher = more signal;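 also: score merges 667 nm feature fluorescence with signal to noise over triplicate slides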

Worked set:
COMPOUND: COCCOC(=O)N1C(=O)[C@@]2(c3cc(C#Cc4ccc(OC)cc4)ccc31)[C@H](C(=O)Nc1nc3ccccc3s1)[C@H]1C(=O)O[C@H](c3ccccc3)[C@H](c3ccccc3)N1[C@@H]2c1ccccc1OCCO
composite z-score: 1.06
--
COMPOUND: COCC(=C=CC[C@@H](O)c1ccc(OCCO)cc1)C[C@@H](O)COCc1ccccc1
composite z-score: 1.43
--
COMPOUND: CCOC(=O)C1=C(C(=O)OCC)N(S(=O)(=O)CC[Si](C)(C)C)[C@H](c2ccccc2)CC1
composite z-score: 0.472
--
COMPOUND: COc1cc(OC)c(C(O)C2C=CC3C(=O)N(c4ccccc4)C(=O)C3N2Nc2ccccc2F)cc1Br (stereo not given)
composite z-score: 0.662
--
COMPOUND: CCOC(=O)C1=CC[C@@H](c2ccccc2Cl)N(S(=O)(=O)c2ccc(C)cc2)[C@H]1c1cccc(OC)c1
composite z-score: -0.0339

Task: Using known records, supply composite z-score for "CO[C@H]1O[C@H](CO)[C@@H](OC(=O)Nc2ccccc2)[C@@H]2OC(=O)[C@H](Cc3ccccc3)C/C=C/C[C@@H](Cc3ccccc3)C(=O)O[C@@H]12"
Output: 0.107

Task: Using known records, supply composite z-score for C=CCC(OC(C)=O)[C@@H]1[C@@H](N(Cc2ccc(-c3cccc(C(F)(F)F)c3)o2)C(=O)c2cccc3ccccc23)c2cc(OCCCO)ccc2N1C(=O)c1ccc2ccccc2n1 (stereo not given in full)
Output: -0.029

Task: Using known records, supply composite z-score for "CCCC=C(CCC)[C@@H](NS(=O)(=O)c1ccc(Cl)cc1)c1ccccc1"
Output: -0.135

Task: Using known records, supply composite z-score for CC(C)(C)N1CC=CC23O[C@@H]4/C=C\CCCOC(=O)C4[C@H]2C(=O)N(CCCCCCO)[C@@H]3C1=O (stereo not given in full)
Output: -1.19

Task: Using known records, supply composite z-score for Cc1ccccc1C(O)C1C=CC2C(=O)N(c3ccccc3)C(=O)C2N1Nc1ccccc1F (stereo not given)
Output: -0.471

Task: Using known records, supply composite z-score for "CN(C)C(=O)[C@]1(Cc2ccccc2CN=[N+]=[N-])N=C(c2ccc(OCCCO)cc2)O[C@@H]1c1ccccc1N=[N+]=[N-]"
Output: 0.317
